Biological target: cynomolgus TNFSF9 (cTNFSF9), full length, overexpressed on HEK293T cells (cynomolgus)
Experiment: cell-based or functional assay
Give measured % live cells, Fab-saporin killing, 250 pM antibody for each item. Keep answers brief.
Remember to quote the unit after the number.

The reported % live cells, Fab-saporin killing, 250 pM antibody of the binder SC113.44 (antibody, mouse IgG1, V domains shown, mouse IgG1) VH: QVQLQQSGPELVKPGTSVRISCKASGYTFTSYYIHWVKQRPGQGLEWIGWIYPRDVDTKYNETFKGKATLTADKSSSTAYIQLNSLTSEDSAVYFCARELTGTVFDYWGQGTTLTVSS VL: QIVLSQSPAILSASPGEKVTMTCRASSSVTYMHWYQRKPGSSPKPWIYATSTLASGVPARFSGTGSGTSYSLTISRVEAEDAATYFCQQWSSNPLTFGAGTKLELK was 33.9%

The reported % live cells, Fab-saporin killing, 250 pM antibody of the binder SC113.36 (antibody, mouse IgG1, V domains shown, mouse IgG1) VH: QVQLKESGPDLVAPSQSLSITCTVSGFSLTSYGVHWVRQPPGKGLEWLGVIWAGGFTNYNSALMSRLSISKDNSKSQVFLKMSSLQTDDTAMYYCVREKDYRYSHYFDYWGQGTTLTVSS VL: DIVMSQSPSSLAVSVGEKVTLSCKSSLSLLYSSNQENYLAWYQQKPGQSPKLLIYWASTRESGVPDRFTGSGSGTDFTLTISSVKAEDLAVYYCQQYYSYPRTFGGGTKLEIK was 102%

The reported % live cells, Fab-saporin killing, 250 pM antibody of the binder SC113.35 (antibody, mouse IgG2b, V domains shown, mouse IgG2b) VH: DVQLQESGPDLVKPSQSLSLTCTVTGYSITSGYGWHWIRQFPGNKLEWMGYIDYSGNNNYNPSLKSRISITRDTSKNQLFLQLNSVTAEDTATYFCARIYYDAMDYWGQGTSVTVSS VL: DIVMTQSHKFMSTSVGERVSITCKASQDVGGAVAWYQQKPGQSPKLLIYWASTRHTGVPDRFTGSGSGTDFTLTISNVQSEDLADYFCQQYSSYPLTFGAGTKLDLK was 69.6%

The reported % live cells, Fab-saporin killing, 250 pM antibody of the binder SC113.46 (antibody, V domains shown, mouse antibody, isotype N/A) VH: QIQLVQSGPELKKPGETVKISCKASGYSFTNYGMNWVKQTPRKGLKWVGWINTYTGETTYADDFKGRFAFSLETSASTAYLQINNLKNEDMATYFCARIYGYGWFAYWGQGTLVTVSA VL: DIQMTQSPSSLSASLGERVSLTCRASQEISGYLSWLQQKPDGTIKRLIYAASTLDSGAPKRFSGSRSGSDYSLIISSLESEDFADYYCLQYSSYPYTFGGGTKLEIK was 31.3%
